B1: r16_88_TrROS_Hall (parent)
chain: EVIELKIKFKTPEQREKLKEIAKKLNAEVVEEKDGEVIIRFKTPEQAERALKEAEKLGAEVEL

Variants of: B1
Procedure details: folding stability dG (cDNA display proteolysis); higher = more stable
Condition parameters: PBS, room temperature
Kindly supply the reported folding stability dG values for the records listed here.
Give bare numbers, in kJ/mol.

State recorded folding stability dG for all listed variants.
1. E53H
2. A54F
3. K52M

[17.4, 18.2, 17.9]

Entry source: the MegaScale stability set (Tsuboyama et al. 2023)
